Give Rat IR phosphorylation [EC50 nM] mean for every item shown.
molecular target: Rat IR (rat, UniProt P15127 27-1383); assay: cell-based or functional assay
Sequence (P15127 27-1383): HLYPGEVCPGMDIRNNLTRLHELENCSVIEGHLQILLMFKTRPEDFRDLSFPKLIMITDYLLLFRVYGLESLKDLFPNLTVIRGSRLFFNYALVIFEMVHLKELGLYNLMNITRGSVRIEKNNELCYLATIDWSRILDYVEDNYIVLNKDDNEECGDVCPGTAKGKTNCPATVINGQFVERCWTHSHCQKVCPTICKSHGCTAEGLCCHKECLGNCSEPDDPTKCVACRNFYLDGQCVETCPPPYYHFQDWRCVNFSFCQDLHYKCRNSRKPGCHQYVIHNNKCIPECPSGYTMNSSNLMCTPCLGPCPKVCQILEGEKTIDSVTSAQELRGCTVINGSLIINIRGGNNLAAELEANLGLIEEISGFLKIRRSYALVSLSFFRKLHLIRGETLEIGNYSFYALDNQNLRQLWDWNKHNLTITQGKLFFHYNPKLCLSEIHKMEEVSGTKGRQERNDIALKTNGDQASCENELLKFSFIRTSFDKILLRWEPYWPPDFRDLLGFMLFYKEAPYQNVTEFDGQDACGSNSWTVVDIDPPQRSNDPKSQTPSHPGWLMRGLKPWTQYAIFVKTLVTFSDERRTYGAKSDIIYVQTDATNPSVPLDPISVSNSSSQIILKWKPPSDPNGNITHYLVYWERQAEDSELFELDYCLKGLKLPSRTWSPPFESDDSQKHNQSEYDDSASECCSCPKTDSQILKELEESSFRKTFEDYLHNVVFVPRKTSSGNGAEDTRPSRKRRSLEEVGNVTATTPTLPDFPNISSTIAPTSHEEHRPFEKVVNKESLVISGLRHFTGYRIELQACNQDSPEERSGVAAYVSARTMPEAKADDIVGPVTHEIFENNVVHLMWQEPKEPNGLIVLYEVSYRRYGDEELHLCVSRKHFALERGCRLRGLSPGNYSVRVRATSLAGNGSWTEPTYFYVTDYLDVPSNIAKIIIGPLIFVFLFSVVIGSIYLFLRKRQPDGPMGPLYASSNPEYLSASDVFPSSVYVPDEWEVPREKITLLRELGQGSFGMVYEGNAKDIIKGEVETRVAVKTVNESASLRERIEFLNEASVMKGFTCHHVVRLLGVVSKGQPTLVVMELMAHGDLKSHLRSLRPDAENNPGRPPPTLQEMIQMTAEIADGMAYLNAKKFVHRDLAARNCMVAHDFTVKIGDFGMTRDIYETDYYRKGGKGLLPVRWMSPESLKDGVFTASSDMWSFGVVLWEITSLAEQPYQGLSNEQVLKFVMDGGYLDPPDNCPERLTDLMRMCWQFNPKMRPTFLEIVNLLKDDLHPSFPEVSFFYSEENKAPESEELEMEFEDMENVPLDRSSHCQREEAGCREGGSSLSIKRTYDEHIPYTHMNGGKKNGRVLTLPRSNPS
State the answer as a number, implicitly in nM.

Tell me its Rat IR phosphorylation [EC50 nM] mean given scl-Fc fusion protein INS010 (Fc fusion) SFVNQHLCGSHLVEALHLVCGERGFAYTPKTEEYPGDVGIVEQCCTSICSLEQLENYCGGEAEDLQVGQVELGGGPGAGSLQPEGSLQGGPSVFLFPPKPKDTLMISRTPEVTCVVVDVSHEDPEVKFNWYVDGVEVHNAKTKPREEQYNSTYRVVSVLTVLHQDWLNGKEYKCKVSNKALPAPIEKTISKAKGQPREPQVYTLPPSRDELTKNQVSLTCLVKGFYPSDIAVEWESNGQPENNYKTTPPVLDSDGSFFLYSKLTVDKSRWQQGNVFSCSVMHEALHNHYTQKSLSLSPGGGGGSAESKYGPPCPPCPA as the entry.
390

Give recorded Rat IR phosphorylation [EC50 nM] mean. scl-Fc fusion protein INS019 (Fc fusion) SFVNQHLCGSHLVEALELVCGERGFHYTPKTGSYPGGVGIVEQCCTSICSLSQLEDYCGGEAEDLQVGQVELGGGPGAGSLQPEGSLQGGPSVFLFPPKPKDTLMISRTPEVTCVVVDVSHEDPEVKFNWYVDGVEVHNAKTKPREEQYNSTYRVVSVLTVLHQDWLNGKEYKCKVSNKALPAPIEKTISKAKGQPREPQVYTLPPSRDELTKNQVSLTCLVKGFYPSDIAVEWESNGQPENNYKTTPPVLDSDGSFFLYSKLTVDKSRWQQGNVFSCSVMHEALHNHYTQKSLSLSPGGGGGSAESKYGPPCPPCPA
2200
